- Test system: NCI-H460 cells
- assay: Cancer cell growth inhibition experiment (MTT assay)
- Type: cell-based
- condition: Homo sapiens, lung cancer cell line, compounds 48 hours, cell viability by MTT assay
- Procedure: NCl-H460 cells, lung cancer cell lines, were cultured in 5% CO2, 37° C. incubator using a flask for 75 cm^2 tissue culture. 96-well plates were used for the evaluation. […] The compounds were evaluated at concentrations of 100, 30, 10, 3, 1, 0.3, 0.03, 0.01 μM. […] The compounds-treated plates were further cultured for 48 hours, and the cell viabilities were measured by MTT assay to calculate IC50 values. […]
pIC50: −log10 of the molar value.
measuredParameter: pIC50

>>> result("O=C(C[C@H]1NCCC[C@@H]1O)Cn1cnc2ccc(-c3cccc(Cl)c3)nc21")
"≥ 5.52"

Lab note: next compound to report on.
Input line: I'm curious: which pIC50 was measured for "O=C(C[C@H]1NCCC[C@@H]1O)Cn1c(CO)nc2ccc(-c3cccc(F)c3)cc21" tested on NCI-H460 cells?
Output line: ≥ 5.52
